Target: Insulin-like growth factor 1 receptor (Homo sapiens)
Sequence (P08069 31-736 limits assumed): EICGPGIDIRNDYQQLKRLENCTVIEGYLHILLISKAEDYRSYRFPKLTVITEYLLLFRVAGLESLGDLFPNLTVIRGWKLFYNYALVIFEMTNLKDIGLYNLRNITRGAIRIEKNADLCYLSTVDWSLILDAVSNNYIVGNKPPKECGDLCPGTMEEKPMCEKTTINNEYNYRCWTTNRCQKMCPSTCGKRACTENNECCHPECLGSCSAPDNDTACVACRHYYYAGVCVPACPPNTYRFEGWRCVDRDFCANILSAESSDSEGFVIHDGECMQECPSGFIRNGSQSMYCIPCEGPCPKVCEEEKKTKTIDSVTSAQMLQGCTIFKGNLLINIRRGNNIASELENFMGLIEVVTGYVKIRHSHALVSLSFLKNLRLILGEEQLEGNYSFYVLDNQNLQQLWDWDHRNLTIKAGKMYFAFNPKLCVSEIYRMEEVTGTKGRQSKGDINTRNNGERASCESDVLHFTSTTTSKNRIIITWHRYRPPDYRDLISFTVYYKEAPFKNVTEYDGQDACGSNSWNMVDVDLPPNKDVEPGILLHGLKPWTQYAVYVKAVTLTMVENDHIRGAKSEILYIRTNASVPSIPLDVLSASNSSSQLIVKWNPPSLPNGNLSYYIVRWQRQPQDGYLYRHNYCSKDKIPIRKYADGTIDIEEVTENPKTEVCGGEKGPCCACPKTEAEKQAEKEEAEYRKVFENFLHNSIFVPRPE
Sequence (P08069 741-1367 limits assumed): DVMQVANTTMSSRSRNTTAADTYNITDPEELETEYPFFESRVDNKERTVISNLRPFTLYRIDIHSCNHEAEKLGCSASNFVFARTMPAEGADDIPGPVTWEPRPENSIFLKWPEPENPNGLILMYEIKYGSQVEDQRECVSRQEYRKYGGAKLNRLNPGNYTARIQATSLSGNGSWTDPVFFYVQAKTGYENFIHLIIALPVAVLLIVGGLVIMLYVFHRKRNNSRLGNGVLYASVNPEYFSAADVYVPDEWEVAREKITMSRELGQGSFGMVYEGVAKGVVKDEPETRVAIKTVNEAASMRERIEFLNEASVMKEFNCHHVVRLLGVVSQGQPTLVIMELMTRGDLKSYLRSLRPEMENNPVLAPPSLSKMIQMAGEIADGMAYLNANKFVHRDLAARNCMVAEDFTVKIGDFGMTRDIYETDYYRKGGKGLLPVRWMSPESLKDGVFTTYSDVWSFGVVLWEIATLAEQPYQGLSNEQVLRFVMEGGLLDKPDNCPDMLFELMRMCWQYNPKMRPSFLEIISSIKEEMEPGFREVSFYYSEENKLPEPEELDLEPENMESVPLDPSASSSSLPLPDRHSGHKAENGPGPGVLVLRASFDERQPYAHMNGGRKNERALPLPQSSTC
pIC50: −log10 of the molar value.
Label Condition met for high-side pIC50 (at or above 7) and Condition not met for low-side pIC50 (below it).

MOL_SMILES | LABEL_CLASS
COc1cc2c(Nc3ccc(Sc4nccn4C)c(Cl)c3)c(C#N)cnc2cc1N1CCN(C)CC1 | Condition not met
CCn1c(Sc2ccc(Nc3c(C#N)cnc4cc(NCCCN5CCOCC5)c(OC)cc34)cc2Br)nc(C)c1C | Condition met
CCn1c(Sc2ccc(Nc3c(C#N)cnc4cc(OCCCNS(C)(=O)=O)c(OC)cc34)cc2Cl)nc(C)c1C | Condition met
COc1cc2c(Nc3ccc(Sc4ccccc4O)cc3)c(C#N)cnc2cc1OCCCN1CCOCC1 | Condition not met
CCn1c(Sc2ccc(Nc3c(C#N)cnc4cc(NCCCc5ccccc5)c(OC)cc34)cc2Cl)nc(C)c1C | Condition not met
CCn1c(Sc2ccc(Nc3c(C#N)cnc4cc(NCCCN5CCN(C)CC5)c(OC)cc34)cc2Cl)nc(C)c1C | Condition met
